Dear all, this message contains MIC results, target or system Salmonella typhimurium KCTC 1926.
Please reply with the bare figure in µM and do not write the unit itself.

Before answering, review these 2 worked examples.
compound	MIC [µM]
CC[C@H](C)[C@H](NC(=O)[C@H](CCCCN)NC(=O)[C@H](Cc1c[nH]c2ccccc12)NC(=O)[C@@H](N)CCCN=C(N)N)C(=O)N[C@@H](Cc1ccccc1)C(=O)N[C@@H](CCCCN)C(=O)N[C@@H](CCCCN)C(=O)N[C@H](C(=O)N1CCC[C@H]1C(=O)N[C@@H](CCCCN)C(=O)N[C@@H](Cc1ccccc1)C(=O)N[C@@H](CC(C)C)C(=O)N[C@@H](Cc1cnc[nH]1)C(=O)N[C@@H](CO)C(=O)N[C@@H](C)C(=O)N[C@@H](CCCCN)C(=O)N[C@@H](CCCCN)C(=O)N[C@@H](Cc1ccccc1)C(N)=O)[C@@H](C)CC [RWKIFKKIPKFLHSAKKF]	2
CC[C@H](C)[C@H](NC(=O)[C@H](Cc1c[nH]c2ccccc12)NC(=O)[C@H](CCCCN)NC(=O)[C@@H](NC(=O)[C@@H](N)CCCCN)[C@@H](C)CC)C(=O)N[C@@H](CC(C)C)C(=O)N[C@@H](CCCCN)C(=O)N[C@@H](Cc1ccc(O)cc1)C(=O)N[C@@H](Cc1c[nH]c2ccccc12)C(=O)N[C@@H](CCCCN)C(=O)N[C@@H](Cc1c[nH]c2ccccc12)C(=O)N[C@@H](CO)C(=O)O [KIKWILKYWKWS]	2

Here is the next item to consider.
Q: Lab request: please report MIC under test system Salmonella typhimurium KCTC 1926 for CC(C)C[C@H](NC(=O)[C@H](CS)NC(=O)[C@H](CCCCN)NC(=O)[C@H](C)NC(=O)[C@H](C)N)C(=O)N[C@H](C(=O)N[C@@H](CCC(N)=O)C(=O)N[C@@H](CCCN=C(N)N)C(=O)N[C@@H](CCCN=C(N)N)C(=O)N[C@@H](CCCN=C(N)N)C(N)=O)C(C)C [AAKCLVQRRR]
A: 7.5

====

# Tested on: Staphylococcus aureus
measure: MIC (µM)
Please reply with the bare figure in µM and do not write the unit itself.

Before answering, review these 2 worked examples.
givenSmiles	assayedTarget	measure	recordedNumber
CC[C@H](C)[C@H](NC(=O)CNC(=O)[C@H](CO)NC(=O)[C@H](CC(C)C)NC(=O)[C@H](CC(C)C)NC(=O)CN)C(=O)N[C@@H](CC(C)C)C(=O)NCC(=O)N[C@@H](C)C(=O)NCC(=O)N[C@@H](CCCCN)C(=O)N[C@@H](CCCCN)C(=O)N[C@H](C(=O)N[C@H](C(=O)N[C@@H](Cc1ccccc1)C(N)=O)C(C)C)[C@@H](C)CC	Staphylococcus aureus	MIC	0.998
NC(=O)[C@H](Cc1ccccc1)NC(=O)[C@H](Cc1ccccc1)NC(=O)[C@H](Cc1ccccc1)NC(=O)[C@H](Cc1ccccc1)NC(=O)[C@H](Cc1ccccc1)NC(=O)[C@H](Cc1ccccc1)NC(=O)[C@H](Cc1ccccc1)NC(=O)[C@@H](N)Cc1ccccc1	Staphylococcus aureus	MIC	5.8

Q: MIC lookup needed for CC[C@H](C)[C@H](NC(=O)CNC(=O)CNC(=O)[C@H](C)NC(=O)[C@@H](NC(=O)[C@H](CCCCN)NC(=O)[C@@H]1CCCN1C(=O)[C@@H](NC(=O)[C@H](CC(C)C)NC(=O)[C@H](CO)NC(=O)[C@H](CC(C)C)NC(=O)[C@@H](N)Cc1ccccc1)[C@@H](C)CC)[C@@H](C)CC)C(=O)N[C@@H](C)C(=O)N[C@@H](C)C(=O)N[C@@H](CC(C)C)C(=O)N[C@H](C(=O)N[C@@H](CCCCN)C(=O)N[C@@H](CC(N)=O)C(=O)N[C@@H](CC(C)C)C(N)=O)C(C)C , thanks.
A: 8

Q: Same lookup for CC[C@H](C)[C@H](N)C(=O)N[C@@H](CC(C)C)C(=O)N[C@@H](CCCCN)C(=O)N[C@@H](CCCCN)C(=O)N[C@@H](Cc1c[nH]c2ccccc12)C(=O)N1CCC[C@H]1C(=O)N[C@@H](Cc1c[nH]c2ccccc12)C(=O)N[C@@H](Cc1c[nH]c2ccccc12)C(=O)N1CCC[C@H]1C(=O)N[C@@H](Cc1c[nH]c2ccccc12)C(=O)N[C@@H](CCCN=C(N)N)C(=O)N[C@@H](CCCN=C(N)N)C(=O)N[C@@H](CCCCN)C(N)=O , please.
A: 8.51

====

Dear all, this message contains MIC results, target or system Bacillus subtilis ATCC 6633.

givenSmiles	MIC
CC(C)C[C@H](NC(=O)[C@H](C)NC(=O)[C@H](CCCN=C(N)N)NC(=O)[C@H](CCCN=C(N)N)NC(=O)[C@H](C)NC(=O)[C@H](Cc1c[nH]c2ccccc12)NC(=O)[C@H](CCCCN)NC(=O)[C@H](CCCN=C(N)N)NC(=O)[C@H](C)NC(=O)[C@H](CCCN=C(N)N)NC(=O)[C@H](CCCN=C(N)N)NC(=O)[C@H](C)N)C(=O)N[C@@H](CCCCN)C(=O)N[C@@H](CC(C)C)C(=O)N[C@@H](C)C(N)=O	20 µM
CC(C)C[C@H](NC(=O)[C@H](C)NC(=O)[C@H](CCCCN)NC(=O)[C@H](CC(C)C)NC(=O)[C@H](C)NC(=O)[C@H](CC(C)C)NC(=O)[C@H](CCCCN)NC(=O)[C@H](CC(C)C)NC(=O)[C@H](C)NC(=O)[C@H](CC(C)C)NC(=O)[C@@H](N)CCCCN)C(=O)N[C@@H](CCCCN)C(=O)N[C@@H](C)C(=O)N[C@@H](C)C(=O)N[C@@H](CC(C)C)C(=O)N[C@@H](CCCCN)C(=O)N[C@@H](CC(C)C)C(=O)N[C@@H](C)C(=O)O	≥ 68.2 µM

Q: MIC lookup needed for CC[C@H](C)[C@H](NC(=O)[C@H](CCCCN)NC(=O)[C@@H](NC(=O)[C@@H](NC(=O)[C@H](CCC(N)=O)NC(=O)CNC(=O)[C@H](Cc1cnc[nH]1)NC(=O)[C@H](CCC(N)=O)NC(=O)[C@@H](N)CC(N)=O)C(C)C)C(C)C)C(=O)N[C@@H](Cc1ccccc1)C(=O)N[C@@H](Cc1cnc[nH]1)C(=O)N[C@@H](Cc1cnc[nH]1)C(=O)O , thanks.
A: ≥ 3200 µM

====

Dear all, this message contains MIC results, target or system Enterococcus faecalis ATCC 29212.
Please reply with the bare figure in µM and do not write the unit itself.

Before answering, review these 2 worked examples.
givenSmiles	assayedTarget	recordedNumber
CC[C@H](C)[C@H](NC(=O)[C@@H](NC(=O)[C@@H](NC(=O)[C@H](CCCN=C(N)N)NC(=O)[C@H](CCCN=C(N)N)NC(=O)[C@H](C)NC(=O)[C@H](CC(C)C)NC(=O)[C@@H](N)CCCN=C(N)N)C(C)C)C(C)C)C(=O)N[C@@H](CCCN=C(N)N)C(=O)N[C@H](C(=O)N[C@@H](C)C(=O)N[C@@H](CCCN=C(N)N)C(N)=O)C(C)C	Enterococcus faecalis ATCC 29212	85.3
CC(C)C[C@H](NC(=O)[C@H](CCCCN)NC(=O)[C@H](CCCCN)NC(=O)[C@H](Cc1ccccc1)NC(=O)[C@H](CC(C)C)NC(=O)[C@H](CCCCN)NC(=O)[C@H](CCCCN)NC(=O)[C@H](Cc1ccccc1)NC(=O)[C@H](CC(C)C)NC(=O)[C@@H](N)CCCCN)C(=O)N[C@@H](Cc1ccccc1)C(=O)N[C@@H](CCCCN)C(N)=O	Enterococcus faecalis ATCC 29212	5.1

Q: MIC lookup needed for CC[C@H](C)[C@H](N)C(=O)N[C@@H](CCCN=C(N)N)C(=O)N[C@@H](CS)C(=O)N[C@@H](CCCN=C(N)N)C(=O)N[C@@H](CCCN=C(N)N)C(=O)N[C@@H](CCCN=C(N)N)C(=O)N[C@@H](Cc1ccccc1)C(=O)N[C@@H](CS)C(=O)N[C@@H](CCCN=C(N)N)C(=O)N[C@H](C(N)=O)[C@@H](C)CC , thanks.
A: 64

Q: Same lookup for CC[C@H](C)[C@H](NC(=O)[C@H](CCCN=C(N)N)NC(=O)CNC(=O)[C@H](CC(C)C)NC(=O)[C@H](Cc1ccccc1)NC(=O)[C@H](CCCCN)NC(=O)[C@H](CO)NC(=O)[C@H](Cc1ccccc1)NC(=O)[C@H](Cc1c[nH]c2ccccc12)NC(=O)[C@@H]1CCCN1C(=O)[C@H](CC(C)C)NC(=O)[C@@H](N)Cc1ccccc1)C(=O)N[C@@H](CC(C)C)C(N)=O , please.
A: 12

====

Dear all, this message contains MIC results, target or system Bacillus subtilis ATCC 6633.

givenSmiles	result
CC[C@H](C)[C@H](N)C(=O)N[C@@H](CCCCN)C(=O)N1CCC[C@H]1C(=O)N[C@@H](C)C(=O)NCC(=O)N[C@@H](CCCCN)C(=O)N[C@@H](CC(C)C)C(=O)N[C@@H](Cc1ccccc1)C(=O)N[C@@H](CCCCN)C(=O)N[C@@H](CC(C)C)C(=O)N[C@@H](Cc1ccccc1)C(=O)N[C@@H](CCCCN)C(N)=O	≥ 368 µM

Q: MIC lookup needed for CC[C@H](C)[C@H](NC(=O)CN)C(=O)N[C@@H](CC(C)C)C(=O)N[C@@H](CC(=O)O)C(=O)N1CCC[C@H]1C(=O)N[C@H](C(=O)N[C@@H](CCCCN)C(=O)N[C@@H](C)C(=O)N[C@@H](Cc1ccccc1)C(=O)N[C@@H](C)C(=O)N[C@@H](CCCCN)C(=O)N[C@@H](C)C(=O)N[C@@H](C)C(=O)NCC(N)=O)[C@@H](C)CC , thanks.
A: 8.02 µM

Q: Same lookup for CC[C@H](C)[C@H](NC(=O)[C@H](CCCCN)NC(=O)[C@H](CCC(N)=O)NC(=O)[C@H](CC(C)C)NC(=O)[C@@H](N)Cc1ccccc1)C(=O)N[C@H](C(=O)NCC(=O)N[C@@H](C)C(=O)N[C@@H](CC(C)C)C(=O)NCC(=O)N[C@@H](Cc1cnc[nH]1)C(=O)N[C@@H](CC(C)C)C(=O)N[C@@H](Cc1ccccc1)C(N)=O)[C@@H](C)CC , please.
A: ≥ 100 µM
